Endpoint summary: pKi, system: 5-hydroxytryptamine receptor 4 (Cavia porcellus), multiple sources combined.
Sequence (O70528 whole entry): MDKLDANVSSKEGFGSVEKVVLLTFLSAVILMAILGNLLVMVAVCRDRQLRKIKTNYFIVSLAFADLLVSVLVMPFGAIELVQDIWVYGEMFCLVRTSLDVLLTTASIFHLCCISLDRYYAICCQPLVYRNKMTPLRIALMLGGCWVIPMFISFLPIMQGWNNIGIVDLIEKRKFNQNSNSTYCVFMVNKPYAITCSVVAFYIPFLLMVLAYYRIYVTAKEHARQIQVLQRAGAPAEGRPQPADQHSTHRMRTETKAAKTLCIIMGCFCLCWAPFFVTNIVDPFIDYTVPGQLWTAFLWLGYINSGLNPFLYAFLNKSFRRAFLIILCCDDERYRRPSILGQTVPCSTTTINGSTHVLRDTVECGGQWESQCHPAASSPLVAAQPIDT
Note: pKi values are expressed as the negative base-10 logarithm of concentration in M.

Write down the reported pKi (system: 5-hydroxytryptamine receptor 4 (Cavia porcellus)) of `CC(C)n1c(=O)n(C(=O)NCCN2CC[N+](C)(C)CC2)c2ccccc21`
7.16

GET pKi where system = 5-hydroxytryptamine receptor 4 (Cavia porcellus) and item = `CCCCN1CCC(CCC(=O)c2cc(Cl)c(N)cc2OCc2cc(OC)cc(OC)c2)CC1`
9.32

Provide pKi, recorded with 5-hydroxytryptamine receptor 4 (Cavia porcellus), of `CCCCN1CCC(COC(=O)c2ccc(N)c(OC)c2)CC1`
9.13
